Numbers sourced from patent US8389768B2.

Tested on: H460 cells
Assay: Chemosensitization study with cisplatin (MTT assay)
Type: cell-based, human
Details: with lipids 1-3 (10 μM), 48 h, read-out: IC50 of cisplatin after treatment with lipids 1-3
recorded endpoint: IC50 (µM)
Numbers only, in µM.

Returns the measured IC50 for the input compound. Input: N.N.[Cl][Pt][Cl] [cisplatin]
3.5
